Source listed as patent US20190119282A1.

biological target: PAR2 (HT-29 cells, SLIGKV activation) (Homo sapiens); construct: host or cells: HT-29 cells; assay: Ca FLIPR TETRA assay, ANTAGONIST mode, stimulation with 8 μM SLIGKV; format: cell-based; conditions: HT-29 cells, stimulation with 8 μM SLIGKV
Sequence (P55085 26-397): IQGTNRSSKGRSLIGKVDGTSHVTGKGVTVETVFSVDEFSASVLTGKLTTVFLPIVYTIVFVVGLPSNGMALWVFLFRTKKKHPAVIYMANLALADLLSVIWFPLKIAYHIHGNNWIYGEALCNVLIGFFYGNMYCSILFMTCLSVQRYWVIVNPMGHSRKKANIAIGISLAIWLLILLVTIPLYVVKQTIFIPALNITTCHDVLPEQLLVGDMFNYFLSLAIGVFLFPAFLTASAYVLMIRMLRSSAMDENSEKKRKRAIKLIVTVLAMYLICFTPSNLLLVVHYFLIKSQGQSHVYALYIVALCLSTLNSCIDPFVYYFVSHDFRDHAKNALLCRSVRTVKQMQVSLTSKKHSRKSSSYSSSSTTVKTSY
Define the label as Y when IC50 is strictly less than 10 nM and as N in all remaining cases.

CCc1cc(-c2ccc(F)cc2)nn2cc(C(=O)N3CCN(C(=O)[C@H](O)C(C)C)[C@@H](C)C3)nc12 : N
Cc1cc(-c2ccc(F)cc2)nn2cc(C(=O)N3CCN(C(=O)[C@H](O)CC(C)(C)C)[C@@H](C)C3)nc12 : Y
C[C@H]1CN(C(=O)c2cn3nc(-c4ccc(F)cc4)cc(C(F)(F)F)c3n2)CCN1C(=O)[C@H](N)CC1CCCCC1 : N
CC(C)CCC(=O)N1CCN(C(=O)c2cn3nc(-c4ccc(F)cc4)cc(C(C)C)c3n2)C[C@@H]1C : Y
CCNC(=O)OC1CCN(C(=O)c2cn3nc(-c4ccc(F)cc4)cc(C)c3n2)CC1 : N
Cc1cc(-c2ccc(F)cc2)nn2cc(C(=O)N3CCN(C(=O)C(C)(C)O)[C@@H](C)C3)nc12 : N
C[C@H]1CN(C(=O)c2cn3nc(-c4ccc(F)cc4)cc(C(F)(F)F)c3n2)CCN1C(=O)c1ccccc1 : N
CC(O)C(=O)N1CCN(C(=O)c2cn3nc(-c4ccc(F)cc4)cc(C(C)C)c3n2)C(C)(C)C1 (stereo not shown) : N
CC1CN(C(=O)c2cn3nc(-c4ccc(F)cc4)cc(C(F)(F)F)c3n2)CCCN1C(=O)OC(C)(C)C (stereo not shown) : N
CC(C)c1cc(C2=CCCC2)nn2cc(C(=O)N3CCN(C(=O)C4(O)CCC4)CC3(C)C)nc12 : N
CCS(=O)(=O)N1CCN(C(=O)c2cn3nc(-c4ccc(F)cc4)cc(C(F)(F)F)c3n2)CC1 : N
CC(C)(O)C(=O)N1CCN(C(=O)c2cn3nc(-c4ccc(F)cc4)cc(C4(C)CC4)c3n2)C(C)(C)C1 : N
COC(=O)[C@@H]1CCN(C(=O)c2cn3nc(-c4ccc(F)cc4)cc(C(F)(F)F)c3n2)C[C@@H]1C : N
CC(C)c1cc(-c2ccc(F)cc2)nn2cc(C(=O)N3CCN(C(=O)[C@H](O)C(C)C)[C@@H](C)C3)nc12 : Y
CC(C)c1cc(-c2ccc(F)cc2)nn2cc(C(=O)N3CCNC(=O)C3(C)C)nc12 : Y
CCc1cc(-c2ccc(F)cc2)nn2cc(C(=O)N3CCN(C(=O)[C@H](O)CC(C)(C)C)CC3(C)C)nc12 : Y
CC(C)c1cc(-c2ccc(F)cc2)nn2cc(C(=O)N3CCN(C(=O)C(C)(C)NC(=O)OCc4ccccc4)[C@@H](C)C3)nc12 : N
Cc1cc(-c2ccc(F)cc2)nn2cc(C(=O)N3CCC(C#N)CC3)nc12 : N
CC(C)CC(O)C(=O)N1CCN(C(=O)c2cn3nc(-c4ccc(F)cc4)cc(C(C)C)c3n2)C[C@@H]1C (stereo partly shown) : Y
CC(C)c1cc(-c2ccc(F)cc2)nn2cc(C(=O)N3CCOCC3(C)C)nc12 : N
CC(C)C(O)C(=O)N1CCN(C(=O)c2cn3nc(-c4ccc(F)cc4)cc(C4CC4)c3n2)C(C)(C)C1 (stereo not shown) : Y
